Measured values drawn from patent US20240409617A1 for this set.

molecular target: D614G Spike (SARS-CoV2)
Recorded Response by entry
Reply with just the number.

Example results:
Ab_17 scFv-Fc (scFv, V domains shown) VH: QVQLVQSGGGVVQPGRSLRLSCAASGFTFDDYAMHWVRQVPGKGLEWVSGIDWNSGVIGYADSVKGRFTISRDNVKNSLYLQMNSLRTEDSALYYCAKDIGPGGSGSYYAFDIWGQGTTVTVSS VL: QSALTQPASVSGSPGQSITISCTGTSSDVGGSKYVSWYQQHPGKAPKVMIYDVTKRPSGVPDRFSGSKSGNTASLTISGLQAEDEADYYCAAWDDSLNGVVFGGGTKLTVL	0.357
Ab_25 scFv-Fc (scFv, V domains shown) VH: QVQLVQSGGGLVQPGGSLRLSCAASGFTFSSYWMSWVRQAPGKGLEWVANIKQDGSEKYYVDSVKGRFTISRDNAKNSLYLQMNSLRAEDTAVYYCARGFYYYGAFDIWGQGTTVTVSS VL: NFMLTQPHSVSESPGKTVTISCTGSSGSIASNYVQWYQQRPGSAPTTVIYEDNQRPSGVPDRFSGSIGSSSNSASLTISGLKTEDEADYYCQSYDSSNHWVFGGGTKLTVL	0.0425

Next up:
Which Response value belongs to Ab_18 scFv-Fc (scFv, V domains shown) VH: EVQLVQSGGGVVQPGRSLRVSCAASGFSFSRYGMHWVRQAPGKGLEWVAFIRHDGSKKYYADSVEGRFTISRDNSRNTVSLEMNSLRGEDTAVYYCAKDGRLEAALDDWGQGTLVTVSS VL: NFMLTQPHSMSGSAGKTVTVSCIRSSGSIANNFVQWYQQRPGSAPTTVIYEDNQRPSGVPDRFSGSIDSSSNSASLTISGLKTEDEADYYCQSYDSSNLVFGGGTRLTVL ? 0.291
